These entries and their values trace back to PubChem BioAssay (NCI).

Test system: A498 renal
Experiment: NCI-60 one-dose screen, 48 h (100 = growth as untreated, 0 = no growth, -100 = all killed)
Settings: 10 µM
About 83,000 compounds went through this panel and 20% of them were active in at least one assay; those are over-represented in the sample as a whole.
Please use MET for growth under 50% and NOT MET for everything else, ties included.

>  <Molecule>
COC(=O)[C@@H](C)C[C@H](Cc1ccccc1)NC(=O)c1csc([C@@H](C[C@H](C(C)C)N(C)C(=O)[C@H](C)NC(=O)[C@H]2CCCN2C)OC(C)=O)n1

>  <Assigned category>
NOT MET

$$$$
>  <Molecule>
CC1CN1CCCCN1CC1C (centres undefined)

>  <Assigned category>
NOT MET

$$$$
>  <Molecule>
COc1cc(/C=N/C2=C(C#N)C(c3ccco3)c3c(c4cc(C)ccc4oc3=O)O2)cc(OC)c1OC (centres undefined)

>  <Assigned category>
NOT MET

$$$$
>  <Molecule>
OCc1ccc2c(c1)OCO2

>  <Assigned category>
NOT MET

$$$$
>  <Molecule>
Nc1ccc(-c2nc3cc(F)ccc3[se]2)cc1F

>  <Assigned category>
MET

$$$$
>  <Molecule>
O=C(Nc1ccc([As]=[As]c2ccc(NC(=O)c3ccccc3)cc2)cc1)c1ccccc1 (centres undefined)

>  <Assigned category>
MET

$$$$
>  <Molecule>
COc1ccc(/C=C\c2cc(OC)c(OC)c(OC)c2)cc1NS(=O)(=O)c1ccc(Cl)cc1

>  <Assigned category>
MET

$$$$
>  <Molecule>
O=C1C(N2CC2)=C(N2CC2)C(=O)C(N2CC2)=C1N1CC1

>  <Assigned category>
MET

$$$$
